condition parameters: acidic group
Label rule met for high-side pKa (at or above 5) and rule not met for low-side pKa (below it).

Enquiry: Is pKa for O=P([O-])([O-])C([NH2+]Cc1cccnc1)c1ccccc1O (stereo not given) at or above 5?
Return: rule met

Enquiry: Is pKa at least 5? Consider O=C(O)CCC(=O)c1ccc(-c2ccccc2)cc1
Return: rule not met

Enquiry: Given the entry O=C1NC(=O)c2cc([N+](=O)[O-])ccc21 , answer whether its pKa meets or surpasses 5.
Return: rule met

Enquiry: Test whether the compound N#Cc1ncnc2nc[nH]c12 records pKa of 5 or higher.
Return: rule met

Enquiry: In plain terms: is recorded pKa at least 5 for CC(C)(O)C(C(=O)O)c1ccc(C2CCCCC2)cc1 (stereo not given) ?
Return: rule not met

Enquiry: Test whether the compound [NH3+]Cc1ccc(F)c(O)c1 records pKa of 5 or higher.
Return: rule met

Enquiry: Hello, I need to know if CC(=O)C1CCCC1=O (stereo not given) has measured pKa not below 5. Thanks!
Return: rule met

Enquiry: Please check the record O=S(=O)([N-]c1ncc(Cl)cn1)c1ccc(O)cc1 and state if its pKa is at or above 5.
Return: rule met

Enquiry: I'd appreciate it if you could say whether CC1NCCc2c1[nH]c1ccc([N+](=O)[O-])cc21 (stereo not given) has pKa at least equal to 5.
Return: rule met

Enquiry: hey, is pKa for this one >= 5? Nc1nc[nH]n1
Return: rule met

Enquiry: Quick check, pKa >= 5? Cc1ccc(NS(=O)(=O)c2ccccc2)cc1
Return: rule met

Enquiry: Determine whether measured pKa meets or exceeds 5 for Oc1ccc(O)[nH+]n1
Return: rule not met

Enquiry: Given [NH3+]CCCCCCCC(=O)O , state whether its pKa is at least 5.
Return: rule not met

Enquiry: Quick check: does O=C(N/N=C/c1ccccc1O)c1ccncc1 have pKa greater than or equal to 5?
Return: rule met

Enquiry: Evaluate C=CC#CCC(=O)O : pKa at minimum 5?
Return: rule not met

Enquiry: Has O/N=C(/NO)c1ccccc1 a recorded pKa greater than or equal to 5?
Return: rule met

Enquiry: Dear colleague, could you confirm whether CC(C)NC(=S)S has pKa at or above 5?
Return: rule not met

Enquiry: Does O=P([O-])(O)C([NH2+]Cc1ccccn1)c1ccccc1O (stereo not given) have a reported pKa of at least 5?
Return: rule met

Enquiry: Quick check, pKa >= 5? Oc1ccc(Cl)cc1C[NH+]1CCCC1
Return: rule met

Enquiry: Hi team, for O=C([O-])c1cc(O)c(O)c(C(=O)[O-])[o+]1 , is the recorded pKa at or above 5?
Return: rule met

Enquiry: Kindly determine if pKa recorded for O=C(O)/C=C/c1ccoc1 is above or exactly 5.
Return: rule not met

Enquiry: Does the compound [NH3+]C(c1cccc(O)c1O)P(=O)([O-])[O-] (stereo not given) have recorded pKa that is 5 or more?
Return: rule met

Enquiry: pKa >= 5 for O=[N+]([O-])c1ccc(S(=O)O)cc1 ?
Return: rule not met

Enquiry: hey, is pKa for this one >= 5? CCOc1cc(C)nc(-n2nc(C)cc2O)n1
Return: rule met

Enquiry: # bool: pKa of Oc1nc([S-])nc2nc[nH]c12 >= 5
Return: rule met

Enquiry: State whether the measured pKa reaches 5, counting equality as reaching it, for Cc1cc(OS(=O)(=O)[O-])c2oc(-c3cc4ccc(O)cc4oc3=O)nc2c1
Return: rule met

Enquiry: State whether the measured pKa reaches 5, counting equality as reaching it, for CCOCCn1c(N2CCC[NH+](CCCCn3cc(C(=O)O)cn3)CC2)[nH+]c2ccccc21
Return: rule not met

Enquiry: Identify whether the reported pKa of the following compound is 5 or greater: Cc1nc(-c2ccccc2[S-])[nH]c1C
Return: rule met

Enquiry: Please tell me: is the compound COc1ccc(C(=O)O)cc1C at or over 5 in terms of pKa?
Return: rule not met

Enquiry: Does pKa meet or surpass 5 for CC(C)c1csc(C(=O)O)c1 ?
Return: rule not met

Enquiry: Reported pKa reaches at least 5 for CCP(=O)(O)CC ?
Return: rule not met

Enquiry: Tell me whether pKa is at least 5 here: Oc1ccccc1/C=N/c1ncc2nc[nH]c2n1
Return: rule met

Enquiry: Hi, just wondering whether CCCC[Se](=O)O shows pKa of 5 or higher.
Return: rule met

Enquiry: Confirm if pKa reported for the compound O=[N+]([O-])Cc1ccccc1 is 5 or above.
Return: rule met

Enquiry: Does the reported pKa for O=C(O)Cn1nnnc1-c1ccccc1 fall at or above the 5 mark?
Return: rule not met

Enquiry: Identify whether the reported pKa of the following compound is 5 or greater: CC(C)(C)c1cc(/C=C/C(=O)[O-])cc(C(C)(C)C)c1O
Return: rule met

Enquiry: Given CC(=O)CCCC(=O)O , state whether its pKa is at least 5.
Return: rule not met

Enquiry: Can CC(=O)CC(=O)CC(C)C be said to have pKa at or above 5?
Return: rule met

Enquiry: Given NC1=NS(=O)(=O)[N-]c2nc[nH]c21 , state whether its pKa is at least 5.
Return: rule met

Enquiry: Entry CN1C(=O)C(C)(C)NC1=S : is its pKa no less than 5?
Return: rule met

Enquiry: Textbook exercise: given the entry Nc1ncc2[nH]cnc2n1 , state whether its pKa is greater than or equal to 5.
Return: rule met

Enquiry: Tell me whether pKa is at least 5 here: CCC(C(=O)O)C(=O)N1CCCCC1 (stereo not given)
Return: rule not met

Enquiry: Answer whether pKa of O=C(C[n+]1cccc2c3ccccc3ccc21)c1ccccc1 is greater than or equal to 5.
Return: rule met

Enquiry: State whether the measured pKa reaches 5, counting equality as reaching it, for O=C1CCC(C2CCCCC2)C(=O)C1 (stereo not given)
Return: rule met

Enquiry: Reported pKa reaches at least 5 for O=C1C=C(O)C(=O)c2ccccc21 ?
Return: rule not met

Enquiry: Reported pKa reaches at least 5 for C/C(=C\c1ccccc1)CC(=O)O ?
Return: rule met

Enquiry: Textbook exercise: given the entry CC/C(C)=C\C(=O)O , state whether its pKa is greater than or equal to 5.
Return: rule met

Enquiry: Does pKa meet or surpass 5 for CC(C)C1CC(CC(=O)O)[NH2+]C1C(=O)[O-] (stereo not given) ?
Return: rule not met

Enquiry: For this compound, is measured pKa 5 or higher? C[N+](=O)[O-]
Return: rule met

Enquiry: Record COC(=O)c1ccccc1S ; criterion: pKa no lower than 5. Met?
Return: rule met

Enquiry: Threshold query (pKa >= 5) on CCC(CC)C1(CC)C(=O)NC(=S)NC1=O
Return: rule met

Enquiry: Please check the record O=[N+]([O-])c1cc(Br)c(O)c(Br)c1 and state if its pKa is at or above 5.
Return: rule not met

Enquiry: Has Oc1ccc2cnncc2c1 a recorded pKa greater than or equal to 5?
Return: rule met

Enquiry: For this compound, is measured pKa 5 or higher? N#CC(C#N)=C(C#N)Nc1cccc([N+](=O)[O-])c1
Return: rule not met

Enquiry: Hello, I need to know if Oc1cccc2c1CCC2 has measured pKa not below 5. Thanks!
Return: rule met

Enquiry: Reported pKa reaches at least 5 for O=C1OC2C3CC4C2C4(C(=O)O)C13Br (stereo not given) ?
Return: rule not met

Enquiry: Assess whether reported pKa for CC1CCC(O)(C(C(=O)O)c2ccc(-c3ccccc3)cc2)CC1 (stereo not given) sits at 5 or higher.
Return: rule not met
